# Test system: Vero cells
# assayNotes: Cell viability (CellTiter-Glo) of Vero cells
# Format: cell-based
# conditionLabel: 10 µM
Structures can show the parent of a compound that is named as a salt. Residues, ends and D or L forms follow the SMILES beside them. *: point of attachment. Cbz = O=C(OCc1ccccc1)*
measuredProperty: Vero Viability

INSERT INTO assay_data (compound, valuereported) VALUES
  ('C1COC(NC(C2CC2)C2CC2)=N1', '97.0 ± 2% of untreated control'),
  ('C[C@H](CCC(=O)[O-])[C@H]1CC[C@H]2[C@@H]3CC[C@@H]4C[C@H](O)CC[C@]4(C)[C@H]3C[C@H](O)[C@]12C.[Na+] [Deoxycholate·Na]', '95.3 ± 2.6% of untreated control'),
  ('COc1cc(/C=C/C(=O)CC(=O)/C=C/c2ccc(O)c(OC)c2)ccc1O', '75.3 ± 11.3% of untreated control'),
  ('OC[C@H]1O[C@H](O[C@H]2O[C@H](CO)[C@@H](O)[C@H](O)[C@H]2O)[C@H](O)[C@@H](O)[C@@H]1O', '97.7 ± 1.5% of untreated control'),
  ('COc1ccc(C2CNC(=O)C2)cc1OC1CCCC1 (stereo not drawn)', '91.0 ± 3.2% of untreated control'),
  ('CC/C(=C(\c1ccccc1)c1ccc(OCCN(C)C)cc1)c1ccccc1 [Tamoxifen citrate]', '60.7 ± 18.4% of untreated control'),
  ('CCN(CC)CCCCN1c2ccccc2Oc2ccc(Cl)cc21.Cl [Akt Inhibitor X·HCl]', '32.3 ± 14.2% of untreated control'),
  ('CCCCCC[C@@H]([C@@H](C)O)n1cnc2c(N)ncnc21.Cl [EHNA·HCl]', '92.3 ± 2% of untreated control'),
  ('COC(=O)C1=C(C)NC(C)=C(C(=O)OCCCN2CCC(c3ccccc3)(c3ccccc3)CC2)[C@H]1c1cccc([N+](=O)[O-])c1', '30.0 ± 14.2% of untreated control'),
  ('Oc1ccc(-c2nc(-c3ccncc3)c(-c3ccc(F)cc3)[nH]2)cc1', '74.3 ± 5.2% of untreated control'),
  ('CCCC(CCC)C(=O)O [Sodium Valproate]', '92.7 ± 1.2% of untreated control'),
  ('Cn1nnc2c(C(N)=O)ncn2c1=O [Temozolomide]', '104.7 ± 1.9% of untreated control'),
  ('Oc1c2ccccc2c2c3c(cccc13)N=N2', '66.0 ± 2.1% of untreated control'),
  ('CCN(CCO)CCCC(C)Nc1ccnc2cc(Cl)ccc12 (stereo not drawn) [Hydroxychloroquine]', '85.3 ± 8.4% of untreated control'),
  ('c1ccc2c(-c3ccncc3)c[nH]c2c1', '87.7 ± 3.8% of untreated control'),
  ('CC(C)C[C@@H](C=O)NC(=O)[C@H](CC(C)C)NC(=O)[C@H](CC(C)C)NC(=O)OCc1ccccc1 [MG132] (Cbz-Leu-Leu-Leu-aldehyde)', '10.7 ± 2.8% of untreated control'),
  ('CCN(CC)CCNC(=O)c1c(C)[nH]c(/C=C2\C(=O)Nc3ccc(Cl)cc32)c1C', '1.0 ± 0% of untreated control'),
  ('Oc1cccc(-c2nc(N3CCOCC3)c3oc4ncccc4c3n2)c1', '43.7 ± 6.4% of untreated control');

====

Known C6/36 Viability of a selection of compounds
# System: C6/36 cells
# Type: cell-based, Ae. albopictus
# conditionLabel: 10 µM
Counter-ions that a name gives are not always drawn.
measuredProperty: C6/36 Viability

INSERT INTO assay_data (compound, valuereported) VALUES
  ('C=C[C@@]1(C)CC(=O)[C@]2(O)[C@@]3(C)[C@@H](O)CCC(C)(C)[C@@H]3[C@H](O)[C@H](OC(C)=O)[C@@]2(C)O1', '94 ± 12% of untreated control'),
  ('Oc1ccc(-c2nc(-c3ccncc3)c(-c3ccc(F)cc3)[nH]2)cc1', '44 ± 7.9% of untreated control'),
  ('COc1cc(CNC(=O)CCCCCCC(C)C)ccc1O [Dihydrocapsaicin]', '61 ± 2.2% of untreated control'),
  ('COC(=O)C1=C(C)NC(C)=C(C(=O)OCCCN2CCC(c3ccccc3)(c3ccccc3)CC2)[C@H]1c1cccc([N+](=O)[O-])c1', '5 ± 2.1% of untreated control'),
  ('COC[C@H]1OC(=O)c2coc3c2[C@@]1(C)C1=C(C3=O)[C@@H]2CCC(=O)[C@@]2(C)C[C@H]1OC(C)=O', '105 ± 5.5% of untreated control'),
  ('C1COC(NC(C2CC2)C2CC2)=N1', '79 ± 8.3% of untreated control'),
  ('Clc1cccc(Cl)c1N=C1NCCN1 [Clonidine·HCl]', '69 ± 5.4% of untreated control'),
  ('NCCCCNCCCN', '70 ± 3% of untreated control'),
  ('COc1ccc(C2CNC(=O)C2)cc1OC1CCCC1 (centres unmarked)', '127 ± 12.1% of untreated control'),
  ('CC1=CC(=O)c2c(O)cccc2C1=O', '49 ± 1.5% of untreated control'),
  ('Oc1c2ccccc2c2c3c(cccc13)N=N2', '132 ± 9% of untreated control'),
  ('COC(=O)Nc1nc2ccc(C(=O)c3cccs3)cc2[nH]1', '58 ± 2.9% of untreated control'),
  ('c1ccc2c(-c3ccncc3)c[nH]c2c1', '76 ± 5.2% of untreated control'),
  ('Oc1cccc(-c2nc(N3CCOCC3)c3oc4ncccc4c3n2)c1', '39 ± 8.9% of untreated control'),
  ('CCN(CC)CCNC(=O)c1c(C)[nH]c(/C=C2\C(=O)Nc3ccc(Cl)cc32)c1C', '1 ± 0% of untreated control'),
  ('CO[C@H]1C[C@@H]2CC[C@@H](C)[C@@](O)(O2)C(=O)C(=O)N2CCCC[C@H]2C(=O)O[C@H]([C@H](C)C[C@@H]2CC[C@@H](O)[C@H](OC)C2)CC(=O)[C@H](C)/C=C(\C)[C@@H](O)[C@@H](OC)C(=O)[C@H](C)C[C@H](C)/C=C/C=C/C=C/1C', '59 ± 7.3% of untreated control'),
  ('OC[C@H]1O[C@H](O[C@H]2O[C@H](CO)[C@@H](O)[C@H](O)[C@H]2O)[C@H](O)[C@@H](O)[C@@H]1O', '99 ± 2.9% of untreated control');

====

# Tested on: Vero cells
# assayNotes: Cell viability (CellTiter-Glo) of Vero cells
# Type: cell-based
# conditionLabel: 10 µM compound, 40 h, CellTiter-Glo; ± SEM, three independent trials
Where a name gives a salt, the structure may show the parent alone.
measuredProperty: Vero Viability

INSERT INTO results (compound, measuredproperty, valuereported) VALUES
  ('CN(C)C(=O)C(CCN1CCC(O)(c2ccc(Cl)cc2)CC1)(c1ccccc1)c1ccccc1 [Loperamide HCl]', 'Vero Viability', '66.7 ± 17.4% of untreated control'),
  ('COc1ccc(CCN(C)CCCC(C#N)(c2ccc(OC)c(OC)c2)C(C)C)cc1OC (centres unmarked) [Verapamil·HCl]', 'Vero Viability', '87.7 ± 0.9% of untreated control'),
  ('C[C@@H]1C[C@@H]([C@H](O)CC2CC(=O)NC(=O)C2)C(=O)[C@@H](C)C1 [Cycloheximide]', 'Vero Viability', '37.3 ± 6.2% of untreated control'),
  ('C=C(C)[C@H]1Cc2c(ccc3c2O[C@@H]2COc4cc(OC)c(OC)cc4[C@@H]2C3=O)O1 [Rotenone]', 'Vero Viability', '61.3 ± 7.7% of untreated control'),
  ('CNC(=O)c1cc(Oc2ccc(NC(=O)Nc3ccc(Cl)c(C(F)(F)F)c3)cc2)ccn1 [Sorafenib tosylate]', 'Vero Viability', '58.3 ± 9.9% of untreated control'),
  ('CN[C@@H]1C[C@H]2O[C@@](C)([C@@H]1OC)n1c3ccccc3c3c4c(c5c6ccccc6n2c5c31)C(=O)NC4 [Staurosporine]', 'Vero Viability', '14.0 ± 1.5% of untreated control'),
  ('[Cl-].[Li+] [Lithium Chloride]', 'Vero Viability', '87.0 ± 1% of untreated control'),
  ('COc1cccc(-c2cc(=O)c3ccccc3o2)c1N [PD-98059]', 'Vero Viability', '90.7 ± 1.3% of untreated control');

====

# System: Vero cells
# assayNotes: Cell viability (CellTiter-Glo) of Vero cells
# Type: cell-based
# conditionLabel: 10 µM
measuredProperty: Vero Viability

INSERT INTO measurements (compound, measuredproperty, valuereported) VALUES
  ('Cn1cnc(N)c2ncnc1-2', 'Vero Viability', '90.7 ± 1.8% of untreated control'),
  ('O=C(Nc1ccc([N+](=O)[O-])cc1Cl)c1cc(Cl)ccc1O [Niclosamide]', 'Vero Viability', '29.7 ± 3.8% of untreated control'),
  ('NS(=O)(=O)C#Cc1ccccc1', 'Vero Viability', '49.0 ± 15% of untreated control'),
  ('CCCCC[C@H](O)CC(=O)CCc1ccc(O)c(OC)c1', 'Vero Viability', '100.0 ± 2.5% of untreated control'),
  ('C=C[C@@]1(C)CC(=O)[C@]2(O)[C@@]3(C)[C@@H](O)CCC(C)(C)[C@@H]3[C@H](O)[C@H](OC(C)=O)[C@@]2(C)O1', 'Vero Viability', '74.7 ± 3.7% of untreated control'),
  ('NCCCCNCCCN', 'Vero Viability', '78.0 ± 17% of untreated control'),
  ('COCCOC(=O)C1=C(C)NC(C)=C(C(=O)OC(C)C)C1c1cccc([N+](=O)[O-])c1 (centres unmarked)', 'Vero Viability', '92.0 ± 1.5% of untreated control'),
  ('COc1cc(CNC(=O)CCCCCCC(C)C)ccc1O [Dihydrocapsaicin]', 'Vero Viability', '92.3 ± 3.8% of untreated control'),
  ('CCCC(=O)Nc1ncnc2c1ncn2[C@@H]1O[C@@H]2COP(=O)([O-])O[C@H]2[C@H]1OC(=O)CCC.[Na+]', 'Vero Viability', '98.3 ± 4.4% of untreated control'),
  ('O=C1NCN(c2ccccc2)C12CCN(CCCC(c1ccc(F)cc1)c1ccc(F)cc1)CC2', 'Vero Viability', '56.7 ± 16% of untreated control'),
  ('Cc1ccc(C(=O)Nc2ccc(S(=O)(=O)[O-])c3cc(S(=O)(=O)[O-])cc(S(=O)(=O)[O-])c23)cc1NC(=O)c1cccc(NC(=O)Nc2cccc(C(=O)Nc3cc(C(=O)Nc4ccc(S(=O)(=O)[O-])c5cc(S(=O)(=O)[O-])cc(S(=O)(=O)[O-])c45)ccc3C)c2)c1.[Na+].[Na+].[Na+].[Na+].[Na+].[Na+]', 'Vero Viability', '92.0 ± 1.2% of untreated control'),
  ('O=C(/C=C/c1cccnc1)NCCCCC1CCN(C(=O)c2ccccc2)CC1', 'Vero Viability', '32.7 ± 2.7% of untreated control'),
  ('O=CC[C@@H](O)[C@H](O)[C@H](O)CO', 'Vero Viability', '98.7 ± 0.9% of untreated control'),
  ('Cn1cc(C2=C(c3ccc(Cl)cc3Cl)C(=O)NC2=O)c2ccccc21', 'Vero Viability', '80.0 ± 9% of untreated control'),
  ('Oc1ccc(/C=C/c2cc(O)cc(O)c2)cc1', 'Vero Viability', '87.3 ± 2.3% of untreated control'),
  ('C/C=C(/C)C(=O)O[C@H]1C(C)=C2[C@H]([C@@H]1OC(=O)CCCCCCC)[C@@](C)(OC(C)=O)C[C@H](OC(=O)CCC)[C@@]1(O)[C@H]2OC(=O)[C@@]1(C)O', 'Vero Viability', '38.0 ± 10.5% of untreated control'),
  ('Cc1ccc(S(=O)(=O)NC(=O)NN2CCCCCC2)cc1 [Tolazamide]', 'Vero Viability', '99.0 ± 1.5% of untreated control');
